System: Kidney
Test: Biodistribution in ddY mouse kidney assessed per gram of tissue at 148 kBq, iv after 180 mins in presence of 200 mg/kg, iv of probenecid administered 30 mins before compound challenge (reference value: 6.29 +/- 1.47 %)
Details: in vivo, 3 h
Readout Name: Drug uptake (% ID/g)
Respond numerically; units are % ID/g and should not be typed.

q: What value of Drug uptake on Kidney does `Oc1ccc2nc(CN3CCC(Cc4ccc([125I])cc4)CC3)[nH]c2c1` have?
a: 4.2

----------
Tested on: Brain
Experiment: Biodistribution in ddY mouse brain assessed per gram of tissue at 148 kBq, iv after 180 mins in presence of 200 mg/kg, iv of probenecid administered 30 mins before compound challenge (reference value: 0.44 +/- 0.06 %)
Settings: in vivo, 3 h
Readout Name: Drug uptake (% ID/g)
Write down the numeric answer in % ID/g and omit the unit.

q: Looking for the measured Drug uptake of `Oc1ccc2nc(CN3CCC(Cc4ccc([125I])cc4)CC3)[nH]c2c1` , can you help?
a: 0.57

----------
Test: Lipophilicity, log P of the compound
Format: physicochemical
Details: octanol/water
Readout Name: logP

INSERT INTO results (structure_smiles, readout_name, result) VALUES
  ('CS(=O)(=O)Nc1ccc2nc(CN3CCC(Cc4ccc(I)cc4)CC3)[nH]c2c1', 'logP', 3.54);

Consider the additional molecule presented here.
q: Which logP is listed for `Oc1ccc2nc(CN3CCC(Cc4ccc(I)cc4)CC3)[nH]c2c1` ?
a: 3.95
